Each item that follows carries a reported log10 of IC50.
# target: Cathepsin D (CatD) (Homo sapiens (Human), UniProt P07339)
# Sequence (P07339 65-412, species assumed): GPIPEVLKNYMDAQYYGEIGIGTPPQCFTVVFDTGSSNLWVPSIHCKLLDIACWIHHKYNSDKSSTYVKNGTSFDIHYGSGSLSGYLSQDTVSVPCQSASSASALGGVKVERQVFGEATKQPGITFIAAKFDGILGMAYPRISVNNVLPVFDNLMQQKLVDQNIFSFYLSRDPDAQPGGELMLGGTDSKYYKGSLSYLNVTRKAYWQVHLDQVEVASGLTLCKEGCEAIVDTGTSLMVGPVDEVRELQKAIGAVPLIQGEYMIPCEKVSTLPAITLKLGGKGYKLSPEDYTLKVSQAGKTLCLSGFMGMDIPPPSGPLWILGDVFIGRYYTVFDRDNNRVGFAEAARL
# assay-info: CatD assay
# Format: biochemical
# test-context: read-out: IC50 IP (μM) CatD
quantity: log10 of IC50 (log10 of the value in µM)

compound=C#CCOc1cnc(/C(F)=C/c2ccc(F)c([C@@]3(C)N=C(N)S[C@@]4(COC)C[C@H]43)c2)cn1 quantity="log10 of IC50" numeric_result=2.50
compound=CC(C)[C@H]1CN(C(=O)[C@]23C[C@H]2[C@@](C)(c2cc(/C=C(\F)c4ccc(C#N)cn4)ccc2F)N=C(N)S3)CCO1 quantity="log10 of IC50" numeric_result=2.23
compound=C[C@]1(c2cc(/C=C(\F)c3ccc(Cl)cn3)ccc2F)N=C(N)S[C@@]2(C(=O)Nc3ccccc3)C[C@H]21 quantity="log10 of IC50" numeric_result=1.13
compound=C[C@]1(c2cc(/C=C(\F)c3ccc(C4COC4)cn3)ccc2F)N=C(N)S[C@@]2(C(=O)N3CCOCC3)C[C@H]21 quantity="log10 of IC50" numeric_result=2.47
compound=COC[C@]12C[C@H]1[C@@](C)(c1cc(/C=C(\F)c3cnc(OCC4CC(F)(F)C4)cn3)ccc1F)N=C(N)S2 quantity="log10 of IC50" numeric_result=2.30
compound=CN(C)C(=O)[C@]12C[C@H]1[C@@](C)(c1cc(/C=C(\F)c3ncc4c(n3)OCCO4)ccc1F)N=C(N)S2 quantity="log10 of IC50" numeric_result=2.57
compound=C[C@@H]1CC[C@@H](C)N1C(=O)[C@]12C[C@H]1[C@@](C)(c1cc(/C=C(\F)c3ccc(C#N)cn3)ccc1F)N=C(N)S2 quantity="log10 of IC50" numeric_result=2.16
compound=C#CCOc1cnc(/C(F)=C/c2ccc(F)c([C@@]3(C)N=C(N)S[C@@]4(C(C)=O)C[C@H]43)c2)cn1 quantity="log10 of IC50" numeric_result=2.10
compound="C[C@]1(c2cc(/C=C(\\F)c3ccc(C#N)cn3)ccc2F)N=C(N)S[C@@]2(C(=O)N3CCCC(c4ccccc4)C3)C[C@H]21 (some centres unmarked)" quantity="log10 of IC50" numeric_result=1.11
compound=C[C@]1(c2cc(/C=C(\F)c3ccc(C#N)cn3)ccc2F)N=C(N)S[C@@]2(C(=O)N3CCC3)C[C@H]21 quantity="log10 of IC50" numeric_result=2.58
compound="C[C@H]1CCN1C(=O)[C@]12C[C@H]1[C@@](C)(c1cc(/C=C(\\F)c3ccc(Cl)cn3)ccc1F)N=C(N)S2 (single isomer, unassigned)" quantity="log10 of IC50" numeric_result=1.63
compound=CNC(=O)[C@]12C[C@H]1[C@@](C)(c1cc(/C=C(\F)c3ccc(C#CC4(C)COC4)cn3)ccc1F)N=C(N)S2 quantity="log10 of IC50" numeric_result=1.86
compound="C[C@]1(c2cc(/C=C(\\F)c3ccc(C#N)cn3)ccc2F)N=C(N)S[C@@]2(C(=O)N3CCCC(C#N)C3)C[C@H]21 (some centres unmarked)" quantity="log10 of IC50" numeric_result=2.18
compound=C[C@]1(c2cc(/C=C(\F)c3cnc(N4CCC4)cn3)ccc2F)N=C(N)S[C@@]2(C(=O)N3CCOCC3)C[C@H]21 quantity="log10 of IC50" numeric_result=1.72
compound=COC(=O)[C@@]12SC(N)=N[C@](C)(c3cc(/C=C(\F)c4ccc(C#N)cn4)ccc3F)[C@@H]1C2(F)F quantity="log10 of IC50" numeric_result=2.88
compound="C[C@]1(c2cc(/C=C(\\F)c3ccc(C#N)cn3)ccc2F)N=C(N)S[C@@]2(C(=O)N3CC4CC3CO4)C[C@H]21 (some centres unmarked)" quantity="log10 of IC50" numeric_result=3.23
compound=C[C@]1(c2cc(/C=C(\F)c3ccc(C#N)cn3)ccc2F)N=C(N)S[C@@]2(C(=O)N3CC4(CCOCC4)C3)C[C@H]21 quantity="log10 of IC50" numeric_result=2.47
compound=C[C@]1(c2cc(/C=C(\F)c3ccc(C#N)cn3)cnc2F)N=C(N)S[C@@]2(C(=O)NCC(F)F)C[C@H]21 quantity="log10 of IC50" numeric_result=2.43
compound=C[C@]1(c2cc(/C=C(\F)c3ccc(C#N)cn3)ccc2F)N=C(N)S[C@@]2(C(=O)N3CCN(c4ccccc4)CC3)C[C@H]21 quantity="log10 of IC50" numeric_result=1.99

====

Below is a list of entries, each paired with its recorded IC50 value.
# target: BACE1 (Homo sapiens (Human), UniProt P56817)
# Sequence (P56817 46-501, species assumed): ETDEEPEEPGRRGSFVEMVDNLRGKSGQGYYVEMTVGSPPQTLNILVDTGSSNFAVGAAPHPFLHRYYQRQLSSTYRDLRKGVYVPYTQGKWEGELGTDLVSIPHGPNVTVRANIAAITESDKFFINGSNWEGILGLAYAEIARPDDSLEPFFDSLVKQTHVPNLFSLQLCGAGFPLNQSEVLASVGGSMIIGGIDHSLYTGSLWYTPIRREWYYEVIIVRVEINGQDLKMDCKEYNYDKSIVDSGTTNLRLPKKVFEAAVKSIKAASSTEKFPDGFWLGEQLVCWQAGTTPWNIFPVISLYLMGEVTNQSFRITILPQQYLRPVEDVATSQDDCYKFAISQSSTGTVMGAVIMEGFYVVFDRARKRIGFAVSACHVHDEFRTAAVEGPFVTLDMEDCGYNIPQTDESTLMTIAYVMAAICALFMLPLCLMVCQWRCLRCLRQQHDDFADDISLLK
# assay-info: BACE1 cell assay
# Assay type: cell-based
# test-context: read-out: IC50 IP (μM) BACE1 Cell
quantity: IC50 (µM)

compound="CC#CCOc1cnc(/C(F)=C/c2cnc(F)c([C@@]3(C)N=C(N)S[C@@]4(C(=O)N(C)C)C[C@H]43)c2)cn1 [Example 289]" measure_unit=µM numeric_result=0.002
compound="CC1CCN1C(=O)[C@]12C[C@H]1[C@@](C)(c1cc(/C=C(\\F)c3ccc(Cl)cn3)ccc1F)N=C(N)S2 (some centres unmarked) [Example 116]" measure_unit=µM numeric_result=0.00929
compound="C[C@]1(c2cc(/C=C(\\F)c3ccc(C#N)cn3)ccc2F)N=C(N)S[C@@]2(S(C)(=O)=O)C[C@H]21 [Example 233]" measure_unit=µM numeric_result=0.0087
compound="CN(C)C(=O)[C@]12C[C@H]1[C@@](C)(c1cc(/C=C(\\F)c3cnc(OCc4ncco4)cn3)ccc1F)N=C(N)S2 [Example 154]" measure_unit=µM numeric_result=0.0049
compound="C#CCOc1cnc(/C(F)=C/c2ccc(F)c([C@@]3(C)N=C(N)S[C@@]4(C(=O)N5CCOC[C@H]5C)C[C@H]43)c2)cn1 [Example 304]" measure_unit=µM numeric_result=0.0015

====

# target: Cathepsin D (CatD) (Homo sapiens (Human), UniProt P07339)
# assay-info: CatD assay
# Assay type: biochemical
# test-context: read-out: IC50 IP (μM) CatD
quantity: log10 IC50 (log10 of the value in µM)

smiles_representation=CN(C)C(=O)[C@]12C[C@H]1[C@@](C)(c1cc(/C=C(\F)c3ccc(C#N)nn3)ccc1F)N=C(N)S2 numeric_result=2.45
smiles_representation=CNC(=O)[C@]12C[C@H]1[C@@](C)(c1cc(/C=C(\F)c3ccc(C#N)cn3)ccc1F)N=C(N)S2 numeric_result=2.63
smiles_representation=COC[C@]12C[C@H]1[C@@](C)(c1cc(/C=C(\F)c3cnc(C#N)cn3)ccc1F)N=C(N)S2 numeric_result=2.69
smiles_representation=C[C@]1(c2cc(/C=C(\F)c3ccc(C#N)cn3)ccc2F)N=C(N)S[C@@]2(C(=O)N3CCOCC34CCC4)C[C@H]21 numeric_result=0.95
smiles_representation=CN(C)C(=O)[C@]12C[C@H]1[C@@](C)(c1cc(/C=C(\F)c3cnc(OCC(F)(F)F)cn3)cnc1F)N=C(N)S2 numeric_result=2.46
smiles_representation=C[C@]1(c2cc(/C=C(\F)c3ccc(C#C[Si](C)(C)C)cn3)ccc2F)N=C(N)S[C@@]2(C(=O)N3CCOCC3)C[C@H]21 numeric_result=1.41
smiles_representation=Cc1nnc(COc2cnc(/C(F)=C/c3ccc(F)c([C@@]4(C)N=C(N)S[C@@]5(S(C)(=O)=O)C[C@H]54)c3)cn2)o1 numeric_result=1.67
smiles_representation=COc1ccc(/C(F)=C/c2ccc(F)c([C@@]3(C)N=C(N)S[C@@]4(C(=O)N5CCCC5)C[C@H]43)c2)nc1 numeric_result=2.27
smiles_representation=C[C@]1(c2cc(/C=C(\F)c3cnc(C#C[Si](C)(C)C)cn3)ccc2F)N=C(N)S[C@@]2(C(=O)N3CCOCC3)C[C@H]21 numeric_result=1.89
smiles_representation=CN(C)C(=O)[C@]12C[C@H]1[C@@](C)(c1cc(/C=C(\F)c3cnc(OCC(F)F)cn3)ccc1F)N=C(N)S2 numeric_result=2.01
smiles_representation=CC(=O)[C@]12C[C@H]1[C@@](C)(c1cc(/C=C(\F)c3ccc(C#N)cn3)ccc1F)N=C(N)S2 numeric_result=2.95
smiles_representation=CNC(=O)[C@]12C[C@H]1[C@@](C)(c1cc(/C=C(\F)c3cnc(OCC(C)=O)cn3)ccc1F)N=C(N)S2 numeric_result=1.86
smiles_representation=COC(=O)[C@]12C[C@H]1[C@@](C)(c1cc(/C=C(\F)c3ccc(Br)cn3)ccc1F)N=C(N)S2 numeric_result=2.48
smiles_representation=CN(C)C(=O)[C@]12C[C@H]1[C@@](C)(c1cc(/C=C(\F)c3ccc(Cl)cn3)cnc1F)N=C(N)S2 numeric_result=2.78
smiles_representation=C[C@]1(c2cc(/C=C(\F)c3ccc(C#CC4CC4)cn3)ccc2F)N=C(N)S[C@@]2(C(=O)N3CCOCC3)C[C@H]21 numeric_result=1.46
smiles_representation=CC[C@H]1COCCN1C(=O)[C@]12C[C@H]1[C@@](C)(c1cc(/C=C(\F)c3ccc(C#N)cn3)ccc1F)N=C(N)S2 numeric_result=1.28
smiles_representation=C[C@]1(c2cc(/C=C(\F)c3ccccn3)ccc2F)N=C(N)S[C@@]2(C(=O)N3CCOCC3)C[C@H]21 numeric_result=2.72
smiles_representation=CN(C)C(=O)[C@]12C[C@H]1[C@@](C)(c1cc(/C=C(\F)c3cnc(C#N)cn3)ccc1F)N=C(N)S2 numeric_result=1.98

Where do the numbers come from? From patent US10246429B2.
